# System: thromboxane synthetase (Rattus norvegicus)
# Construct: The platelets were isolated by centrifuging the PRP for 10 minutes; endogenous in cells; host or cells: washed platelets from arterial blood of Okamoto-Aoki spontaneously hypertensive rats (rats from Taconic Farms)
# Test Method Notes: Inhibition of thromboxane (TXB2) formation in washed rat platelets, TXB2 by direct radioimmunoassay
# Format: cell-based, Okamoto-Aoki spontaneously hypertensive rats (SHR)
# Cond: 10 min; Dose 10^-4 (unit inferred); SHR platelet suspension, 10 minutes at 37° C.
Structures can show the parent of a compound that is named as a salt.
Kindly state inhibition at 100 µM for each of the entries shown.
Give bare numbers, in %.

Some solved entries appear below for comparison.
> print(dat)
                                   compound                                    system     property.measured  scale.unit  quantitative.readout
1  O=C(NC(CCn1ccnc1)c1ccccc1)c1ccc(Br)cc1 (centres unmarked)  thromboxane synthetase (Rattus norvegicus)  inhibition at 100 µM           %                   100
2             Nc1ccc(Cl)cc1C(=O)NCCCn1ccnc1  thromboxane synthetase (Rattus norvegicus)  inhibition at 100 µM           %                    96
3   O=C(NCCCn1ccnc1)c1ccc(C(=O)c2ccccc2)cc1  thromboxane synthetase (Rattus norvegicus)  inhibition at 100 µM           %                   103
4       O=C(NCCCn1ccnc1)c1ccc(-c2ccccc2)cc1  thromboxane synthetase (Rattus norvegicus)  inhibition at 100 µM           %                   106
5         O=C(NCCCn1ccnc1)c1ccccc1-c1ccccc1  thromboxane synthetase (Rattus norvegicus)  inhibition at 100 µM           %                    95

Would you be so kind as to report inhibition at 100 µM for each listed record?
1. O=C(NCCCn1ccnc1)C(=O)c1ccccc1 [fumarate]
2. O=C(COc1ccc(Cl)cc1)NCCCn1ccnc1
3. CNc1ccccc1C(=O)NCCCn1ccnc1
4. O=C(NCCCn1ccnc1)c1cccc(Cl)c1

# output
79.7
84.6
57
75.4

For each of the compounds below, state inhibition at 100 µM.
1. O=C1c2ccccc2C(=O)N1CCCCCn1ccnc1
2. O=C(NCCCn1ccnc1)c1cccc2ccccc12
3. COc1ccc(C(=O)NCCCn2ccnc2)cc1
4. Cc1ccc(CC(=O)NCCCn2cnc(C)c2)cc1
5. O=C(NCCCCn1ccnc1)c1ccc(Cl)c(Cl)c1

# output
92
75
88.9
76
100

Give measured inhibition at 100 µM for every item shown.
1. CC(CNC(=O)c1ccc(Cl)cc1)Cn1ccnc1 (centres unmarked)
2. Cc1cc(Cl)cc(C(=O)NCCCn2ccnc2)c1N [dihydrochloride salt]

# output
1. 100
2. 80

---

Kindly state inhibition at 100 µM for each of the entries shown.
# System: thromboxane synthetase (Rattus norvegicus)
# Construct: The platelets were isolated by centrifuging the PRP for 10 minutes; endogenous in cells; host or cells: washed platelets from arterial blood of Okamoto-Aoki spontaneously hypertensive rats (rats from Taconic Farms)
# Sequence (P49430 1-533): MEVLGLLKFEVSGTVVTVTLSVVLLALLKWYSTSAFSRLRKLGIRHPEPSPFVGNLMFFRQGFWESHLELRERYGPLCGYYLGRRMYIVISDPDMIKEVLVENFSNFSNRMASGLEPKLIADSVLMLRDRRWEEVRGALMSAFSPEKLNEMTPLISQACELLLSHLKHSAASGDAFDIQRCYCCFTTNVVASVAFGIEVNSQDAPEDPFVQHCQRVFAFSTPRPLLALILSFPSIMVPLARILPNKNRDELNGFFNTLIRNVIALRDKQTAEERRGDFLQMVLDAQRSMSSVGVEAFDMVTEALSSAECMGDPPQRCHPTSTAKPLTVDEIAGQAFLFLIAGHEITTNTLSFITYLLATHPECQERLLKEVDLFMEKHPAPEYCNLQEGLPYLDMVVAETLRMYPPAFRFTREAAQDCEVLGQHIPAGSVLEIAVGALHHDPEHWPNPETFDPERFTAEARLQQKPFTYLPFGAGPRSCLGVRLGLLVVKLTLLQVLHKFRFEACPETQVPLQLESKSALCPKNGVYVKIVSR
# Test Method Notes: Inhibition of thromboxane (TXB2) formation in washed rat platelets, TXB2 by direct radioimmunoassay
# Format: cell-based, Okamoto-Aoki spontaneously hypertensive rats (SHR)
# Cond: 10 min; Dose 10^-4 (unit inferred); SHR platelet suspension, 10 minutes at 37° C.
Give bare numbers, in %.

Some entries whose results are on file:
> print(dat)
                                   compound  scale.unit  quantitative.readout
1  O=C(NC(CCn1ccnc1)c1ccccc1)c1ccc(Cl)cc1 (stereo not shown)           %                   100
2      O=C(NCCCn1ccnc1)C1c2ccccc2-c2ccccc21           %                   100
3           CN(C)c1ccc(C(=O)NCCCn2ccnc2)cc1           %                    93
4         C=CCNc1ccc(Cl)cc1C(=O)NCCCn1ccnc1           %                    95
5              O=C(Cc1ccc(F)cc1)NCCCn1ccnc1           %                  53.1
6           Cc1cn(CCCNC(=O)c2cccc(Br)c2)cn1           %                    93

# input I would be grateful if you could share the reported inhibition at 100 µM for CC(=O)Nc1ccc(C(=O)NCCCn2ccnc2)cc1 .
# output 98.7
